Data origin: ChEMBL document CHEMBL3301472

experiment: MMV: MTT Cytotoxicity Assay Day 3 pi, U87-CD4-CCR5 cells, % cell death @ 5mM compound; assay type: toxicity, cell-based; settings: human, u87-cd4-ccr5, 5000 µM
class 1 if % Cell Death is below 20. class 0 if not; exact matches included in class 0.

Check out these entries, answers already filled in.
>>> assigned_label("Cc1ccc(C2CC(C(F)(F)F)n3nc(C(=O)N4CCN(C(c5ccccc5)c5ccccc5)CC4)cc3N2)cc1 (stereo unspecified)")
"class 0"
>>> assigned_label("CCOc1cc(Br)c(C(C)NC(=O)c2cccc(OC)c2)cc1OCC (stereo unspecified)")
"class 1"
>>> assigned_label("COc1cccc(C(=O)Nc2ccc(-c3nc4ccccc4[nH]3)cc2)c1")
"class 0"
>>> assigned_label("CCOC(=O)c1cnc2ccc(Cl)cc2c1NCCCN(C)C")
"class 1"
>>> assigned_label("O=C(NCC(c1ccsc1)N1CCCCCC1)c1ccc(C(F)(F)F)cc1 (stereo unspecified)")
"class 1"

[in] Hello, I'm reviewing records and need to know if % Cell Death of `O=C(Nc1ccccc1O)c1ccc(-c2ccc(Cl)cc2Cl)o1` is below 20. Could you check?
[out] class 1

[in] A record lists `CN(C)CCNc1cc(-c2ccccc2)nc2ccccc12` . Is its % Cell Death below 20?
[out] class 0

[in] A record lists `CCOc1ccc(Nc2c3ccccc3nc3ccccc23)cc1.Cl` . Is its % Cell Death below 20?
[out] class 0

[in] Threshold test, % Cell Death < 20: `CNCCCNc1ccnc2cc(Cl)ccc12`
[out] class 0

[in] Please determine if COc1ccc(N2CCN(C(CNC(=O)C3CCCCC3)c3ccc4c(c3)OCO4)CC2)cc1 (stereo unspecified) is below 20 in terms of % Cell Death.
[out] class 1

[in] Hello, is % Cell Death of the following molecule strictly smaller than 20? COc1cccc(O)c1CN1CCC2(CCCN(Cc3ccc(F)cc3)C2)C1 (stereo unspecified)
[out] class 1
